Literature survey of pIC50 (system: TGF-beta receptor type-1 (Homo sapiens, UniProt P36897)).
pIC50: −log10 of the molar value.

Some compounds with recorded pIC50:
What pIC50 appears in the records for this compound with TGF-beta receptor type-1 (Homo sapiens, UniProt P36897)? "C[C@@H](CO)NC(=O)c1cnccc1Nc1cc(-c2cc(Cl)ccc2F)c(=O)n(C)c1"
< 5.30

Lab request: please report pIC50 under test system TGF-beta receptor type-1 (Homo sapiens, UniProt P36897) for "Fc1ccccc1-c1cc(-c2ncnc3cnccc23)c2cccnc2n1"
5.00 to 6.00

Look up pIC50 with TGF-beta receptor type-1 (Homo sapiens, UniProt P36897) for this compound: "Nc1ccc2cnccc2c1-c1cc(-c2ccccc2F)nc2ncccc12"
> 6.00

New cases:
Give TGF-beta receptor type-1 (Homo sapiens, UniProt P36897) pIC50 for "NC(=O)c1sc2nc(OCC3CCCC3)nc(-c3cccc(C(F)(F)F)c3)c2c1N"
< 6.00

Recall the recorded pIC50 for "Fc1cc(F)c(-c2cc(Nc3ccncn3)c3cccnc3n2)cc1F" with TGF-beta receptor type-1 (Homo sapiens, UniProt P36897) and state it.
> 7.00

* * *

Ok so here's the combined literature set: IC50 for TGF-beta receptor type-1 (Homo sapiens).

Data request, read-out IC50, for "NC(=O)c1sc2nc(OCCCn3cccn3)nc(-c3cccc(Cl)c3)c2c1N"
< 100 nM

Further cases:
Returns the measured IC50 for the input molecule. Input: "Cc1cccc2c(Nc3ccnc(Nc4cccc(N5CCOCC5)c4)c3)cnnc12"
2 to 5 nM

Could you tell me which IC50 is on file for "Cc1ccc(-c2cc(Nc3ccncc3)c3cccnc3n2)o1" ?
100 to 1000 nM

* * *

Hi, quick share: literature IC50 data for TGF-beta receptor type-1 (Homo sapiens), several sources combined.

Item "Cc1cc(F)cc2c(Nc3ccnc(Nc4ccc(N5CCNCC5)cc4)n3)cnnc12" has what recorded IC50?
< 10 nM

Recorded IC50 of "NC(=O)c1sc2nc(OCCN3CCOCC3=O)nc(-c3cccc(Cl)c3)c2c1N" , please.
< 100 nM

New cases:
Bench note: what IC50 did "CC(C)(O)c1cc(Nc2cc(Oc3cc(C(F)(F)F)nn3C3CC3)ccn2)ccn1" show?
58 nM

// returns reported IC50 for input "Fc1ccccc1-c1cc(-c2cncc(-c3cnc4ccccc4c3)c2)ccn1"
1000 to 10000 nM

Would you kindly share the measured IC50 for "Cc1cccc2c(Nc3ccnc(Nc4ccc(N5CCN(C)CC5)cc4)n3)cnnc12" ?
< 10 nM

Dear colleague, I am looking for the recorded IC50 of the following compound: "CCCC(=O)Nc1cc(Nc2cc(-c3cc(Cl)ccc3F)nc3ncccc23)ccn1"
< 100 nM

* * *

pIC50: −log10 of the molar value.
Compiled pIC50 measurements on UniProt:P36897 taken from the literature.

Please review the following examples before continuing.
Missing value: pIC50, UniProt:P36897, entry "CC(=O)Nc1cc(Nc2cc(-c3cc(F)ccc3F)nc3ncccc23)ncn1" . Fill in?
> 7.00

Could you share what pIC50 was measured for "Cc1nn(-c2cc(-c3cc(Cl)ccc3F)nc3ncccc23)c2ccncc12" , tested on UniProt:P36897?
> 7.00

Observed pIC50 on UniProt:P36897 for "CC(C)(C)OCCOc1nc(-c2cccc(Cl)c2)c2c(N)c(C(N)=O)sc2n1" , please.
6.30 to 7.00

Next:
API: value(readout= pIC50, system= UniProt:P36897, query= "Nc1ncc(-c2cc(-c3ccccc3F)nc3nccnc23)c2ccncc12" )
> 6.00

// fetch UniProt:P36897 pIC50 for "Cc1cccc(-c2nc(CNC3Cc4ccccc4C3)[nH]c2-c2ccc3ncnn3c2)n1"
6.00 to 7.00

# value lookup — system UniProt:P36897, readout pIC50, item "c1cc(C2CC2)c2nncc(Nc3ccnc(Nc4ccc(N5CCOCC5)cc4)n3)c2c1"
> 8.00

Param readout= pIC50; system= UniProt:P36897; entry= "CN1C(=O)Cc2cc(-c3cncc(-c4ccc(=O)n(CC5CCC5)c4)c3)ccc21" ; returns value.
< 5.00

# query: pIC50 | item "CCNCCOc1cnccc1Nc1cc(-c2cc(Cl)ccc2F)nc2ncccc12" | system: UniProt:P36897
6.00 to 7.00

Hello, I am looking for reported pIC50 with UniProt:P36897 for "O=c1c2cnccc2c(-c2cc(-c3cc(Cl)ccc3F)nc3ncccc23)cn1CCCO" . Could you help?
> 6.00

* * *

The molecules below each have a reported pIC50 tested on TGF-beta receptor type-1 (Homo sapiens, UniProt P36897); the values come from various publications.
pIC50: −log10 of the molar value.

Would you mind telling me what pIC50 value was observed for "Fc1ccc(C(F)(F)F)cc1-c1cc(-n2ccc3cnccc32)c2cccnc2n1" ?
> 7.00

I am curious: what pIC50 value has been reported for "Fc1ccc(Cl)cc1-c1cc(Sc2ccncc2)c2cccnc2n1" ?
> 7.00

Report pIC50 for "Nc1nccc2c(-c3cc(-c4ccccc4F)nc4ncccc34)ccnc12" please.
> 6.00

Recorded pIC50 of "CN(C)c1[nH]c(=O)c(-c2cc(Cl)ccc2F)cc1Nc1ccncc1F" , please.
5.30 to 5.70

Given the entry "Cc1cccc(-c2nc(CN3Cc4ccccc4C3=O)[nH]c2-c2ccc3ncnn3c2)n1" , report its measured pIC50.
6.00 to 7.00

Requested read-out: pIC50. Entry: "NC(=O)c1sc2nc(OCCO)nc(-c3cccc(Cl)c3)c2c1N"
6.30 to 7.00

For the molecule "Fc1ccc(Cl)cc1-c1cc(-c2cc(OCCN3CCOCC3)nc3cnccc23)c2cccnc2n1" , what pIC50 is on record?
> 6.00

Item "NC(=O)c1sc2nc(OCCn3cccn3)nc(-c3cccc(Cl)c3)c2c1N" has what recorded pIC50?
> 7.00

Returns the measured pIC50 for the input molecule. Input: "CC(C)(O)c1cc(Nc2cc(Oc3cc(C(F)(F)F)nn3C3CCNCC3)ccn2)ccn1"
7.06

# lookup: pIC50 of "CN(C)CC(=O)Nc1cc(Nc2cc(-c3cc(Cl)ccc3F)nc3ncccc23)ncn1"
> 7.00

Continue with the next molecule.
Field request: pIC50 | item: "Cc1cccc(-c2cc(-n3ccc4cnccc43)c3cccnc3n2)n1"
> 7.00

* * *

Collected from the literature: IC50 of various molecules toward TGF-beta receptor type-1 (Homo sapiens, UniProt P36897).

Short answer please: IC50, TGF-beta receptor type-1 (Homo sapiens, UniProt P36897), entry "Cc1cccc2c(Nc3ccnc(Nc4cc(N5CCOCC5)cc(C(F)(F)F)c4)n3)cnnc12"
< 10 nM

Please tell me: IC50 of "Nc1cc(Nc2cc(-c3cc(C(F)(F)F)ccc3F)nc3ncccc23)ncn1" , system TGF-beta receptor type-1 (Homo sapiens, UniProt P36897)?
< 100 nM

Request body: readout IC50, system TGF-beta receptor type-1 (Homo sapiens, UniProt P36897), query "COC(=O)c1nccc2c1ccn2-c1cc(-c2cc(Cl)ccc2F)nc2ncccc12" . Return the value.
100 to 1000 nM

Report IC50 for "Cc1ccc(-c2nc(OCCn3cccn3)nc3sc(C(N)=O)c(N)c23)o1" tested on TGF-beta receptor type-1 (Homo sapiens, UniProt P36897).
100 to 500 nM

---
Notebook: pull reported IC50 for TGF-beta receptor type-1 (Homo sapiens, UniProt P36897), entry "Nc1ccc2c(-c3nccc4c(N)nccc34)cc(-c3ccccc3F)nc2n1"
< 1000 nM

Report IC50 for "COC(=O)c1cnccc1Nc1cc(-c2cc(Cl)ccc2F)c(=O)[nH]c1N(C)C" tested on TGF-beta receptor type-1 (Homo sapiens, UniProt P36897).
500 to 2000 nM

Value wanted: IC50 (TGF-beta receptor type-1 (Homo sapiens, UniProt P36897)) of entry "O=c1c2cnccc2c(-c2cc(-c3cc(Cl)ccc3F)nc3ncccc23)cn1CCN1CCOCC1"
1000 to 10000 nM

* * *

pIC50: −log10 of the molar value.
// note: pIC50 values for UniProt P36897 were reported in different studies

Look over these answered cases.
Sample "C[C@H](O)CNC(=O)c1cnccc1Nc1cc(-c2cc(Cl)ccc2F)c(=O)n2c1N(C)CCC2" — what was its pIC50?
< 5.30

Any idea what its pIC50 is? The molecule is "Cc1cccc2c(Nc3ccnc(Nc4ccc(C(C)(C)C)cc4)n3)cnnc12"
7.00 to 8.00

Consider the molecule shown here: "c1cnc2nc(-c3cn[nH]c3)cc(Nc3ccncc3)c2c1" What is its recorded pIC50?
6.00 to 7.00

Using the record for "CC(C)N1C[C@H]2C[C@@]2(c2ccc(-c3cnc(N)c(C(=O)N[C@H]4CC[C@H](O)CC4)c3)cc2)C1" , report its pIC50.
5.66

Tell me the measured pIC50 of "CC(C)c1[nH]c(=O)c(-c2cc(Cl)ccc2F)cc1Nc1ccnc2[nH]ccc12" , please.
≥ 6.30

Endpoint output: pIC50 of "CN1CCN(CCCNc2nc3sc(C(N)=O)c(N)c3c(-c3cc4ccccc4o3)c2C#N)CC1" . Value?
7.20

Query: pIC50; subject: "Nc1nccc2c(-c3cc(-c4ccccc4F)nc4ncccc34)nccc12"
> 6.00

Which measured pIC50 value corresponds to "Cc1cccc(-c2nc(CN[C@@H](C)c3ccccc3)[nH]c2-c2ccc3ncnn3c2)n1" ?
5.00 to 6.00

Fill in: pIC50 of "COCn1cc(-c2cncc(-c3ccc4c(c3)CC(=O)N4C)c2)ccc1=O" is ___
< 5.00

Others:
Can you look up the measured pIC50 of "Nc1nccc2c(-c3cc(-c4ccccc4Cl)nc4ncccc34)nccc12" for me?
> 6.00
